study_target: biotinylated labeled human GPC3 protein (produced in-house) (human, UniProt P51654 25-559, limits assumed, biotinylated (Dojindo, Cat. No. LK03); sites not stated)
measurement_description: ELISA, biotinylated human GPC3 protein
measure: OD450 at 1.39 nM (OD450)
// units = OD450; emit number, no label

**Q:** Name the recorded OD450 at 1.39 nM of the binder listed here: hAb006LH3L1d (antibody, human IgG1, V domains shown, Humanized F3.38.7; VH H3 + VL L1d; expressed as human IgG1) VH: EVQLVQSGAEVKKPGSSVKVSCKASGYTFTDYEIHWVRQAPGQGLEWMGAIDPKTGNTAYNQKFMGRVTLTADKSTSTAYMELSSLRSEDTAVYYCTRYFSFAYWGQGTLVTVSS VL: DIVMTQTPLSLPVTPGEPASISCRSSQTFVHSNSNTYLQWYLQKPGQSPQLLIYKVSNRFSGVPDRFSGSGSGTDFTLKISRVEAEDVGVYYCFQGSHVPYTFGQGTKLEIK
**A:** 1.61
